Reference for the values: ChEMBL document CHEMBL4411305

test system: Hepatitis B virus; experiment: Binding affinity to HBV dimeric capsid protein C150 mutant expressed in Escherichia coli BL21 (DE3) at 20 uM by Sypro orange staining based RT-PCR analysis
The source made the active and inactive calls. How the calls were made is not given here.
// allowed return values: Yes = active, No = inactive

Here are 5 molecules together with their reported answers.
Cc1c(C(=O)Nc2ccc(F)c(F)c2)sc(N)c1C(=O)NC1CCCC1; Yes
Cc1c(C(=O)Nc2ccccc2)sc(NC(=O)c2cn[nH]c2)c1C(N)=O; Yes
Cc1c(C(=O)Nc2ccccc2)sc(N)c1C(=O)NC(C)C; No
Cc1c(C(=O)Nc2ccccc2)sc(NC(=O)c2ccc(S(C)(=O)=O)cc2)c1C(N)=O; Yes
Cc1c(C(=O)Nc2ccc(F)cc2)sc(N)c1C(N)=O; Yes

IN: For this molecule, state the assay outcome: COc1ccc(NC(=O)c2sc(N)c(C(N)=O)c2C)cc1
OUT: Yes

IN: Let us now turn to Cc1c(C(=O)Nc2ccc(C(F)(F)F)cc2)sc(N)c1C(N)=O
OUT: No

IN: Let us now turn to Cc1c(C(=O)Nc2ccccc2)sc(NC(=O)c2ccsc2)c1C(N)=O
OUT: Yes

---

system: Hepatitis B virus; assay: Binding affinity to HBV dimeric capsid protein C150 mutant expressed in Escherichia coli BL21 (DE3) at 20 uM by Sypro orange staining based RT-PCR analysis
Calls of active or inactive are those of the source. The rule behind the calls is not given here.
measurement_label: Activity

Cc1cc(NC(=O)c2sc(N)c(C#N)c2C)ccc1F; Active
Cc1c(C(=O)Nc2ccc(F)c(C(F)F)c2)sc(N)c1C(N)=O; Active
Cc1c(C(=O)Nc2ccc(F)c(F)c2)sc(N)c1C#N; Active
NC(=O)c1c(N)sc2c1CCCC2; inactive

IN: Looking for the measured Activity of Cc1nc(=O)c2c(C)c(C(=O)Nc3ccccc3)sc2[nH]1 , can you help?
OUT: inactive

IN: Let us now turn to Cc1c(C(=O)Nc2ccccc2)sc(NC(=O)N2CCOCC2)c1C(N)=O
OUT: inactive

IN: Let us now turn to Cc1c(C(=O)Nc2ccc(C#N)cc2)sc(N)c1C(N)=O
OUT: inactive

IN: Let us now turn to Cc1c(C(=O)Nc2ccc(F)c(F)c2)sc(N)c1C(=O)Nc1ccccc1
OUT: Active

IN: Let us now turn to CCOC(=O)C1=C(C)NC(c2ncccc2F)=NC1c1ccc(F)cc1Cl (configuration not stated)
OUT: Active

IN: Let us now turn to Cc1c(C(=O)NCc2ccccc2)sc(N)c1C(N)=O
OUT: Active

IN: Let us now turn to Cc1c(C(=O)Nc2ccc(F)c(F)c2)sc(N)c1C(=O)Nc1ccc(F)c(F)c1
OUT: Active

IN: Let us now turn to Cc1c(C(=O)Nc2ccc(F)c(F)c2)sc(N)c1C(N)=O
OUT: Active

IN: Let us now turn to Cc1ccc(NC(=O)c2sc(N)c(C(N)=O)c2C)cc1
OUT: inactive

IN: Let us now turn to Cc1cc(NC(=O)c2sc(N)c(C(=O)Nc3ccc(F)c(C)c3)c2C)ccc1F
OUT: inactive

IN: Let us now turn to Cc1c(C(=O)Nc2ccccc2)sc2[nH]c(Cc3ccccc3)nc(=O)c12
OUT: inactive

IN: Let us now turn to Cc1c(C(=O)Nc2cc(F)c(F)c(Cl)c2)sc(N)c1C#N
OUT: inactive

IN: Let us now turn to Cc1cc(NC(=O)c2sc(N)c(C(N)=O)c2C)ccc1Br
OUT: Active
